measurement target: C-C chemokine receptor type 2 (Homo sapiens, UniProt P41597)
run description: Displacement of [125I]MCP1 from human CCR2 at 0.30 uM preincubated 30 mins by human whole cell binding assay
Sequence (P41597 whole entry, looked up): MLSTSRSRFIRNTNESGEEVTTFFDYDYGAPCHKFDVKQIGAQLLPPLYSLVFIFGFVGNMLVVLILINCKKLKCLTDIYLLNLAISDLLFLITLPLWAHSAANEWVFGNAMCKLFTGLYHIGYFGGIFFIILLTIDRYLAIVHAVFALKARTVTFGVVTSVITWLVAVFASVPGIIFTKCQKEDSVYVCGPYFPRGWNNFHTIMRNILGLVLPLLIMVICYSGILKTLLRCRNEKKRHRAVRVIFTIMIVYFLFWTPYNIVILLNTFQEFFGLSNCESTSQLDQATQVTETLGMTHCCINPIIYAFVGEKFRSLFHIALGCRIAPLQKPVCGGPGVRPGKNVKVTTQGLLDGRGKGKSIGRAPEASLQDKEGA
readout kind: Activity (%)

CC(C)[C@]1(C(=O)N2C[C@@H]3C[C@H]2CN3C(=O)C(C)(C)C)CC[C@@H](NC2CCOCC2)C1
23
CCC(=O)N1C[C@@H]2C[C@H]1CN2C(=O)[C@@]1(C(C)C)CC[C@@H](NC2CCOCC2)C1
28
CC(C)C(=O)N1C[C@@H]2C[C@H]1CN2C(=O)[C@@]1(C(C)C)CC[C@@H](NC2CCOCC2)C1
40
CC(C)[C@]1(C(=O)N2C[C@@H]3C[C@H]2CN3C(=O)C2CCOCC2)CC[C@@H](NC2CCOCC2)C1
46
CC(=O)N1C[C@@H]2C[C@H]1CN2C(=O)[C@@]1(C(C)C)CC[C@@H](NC2CCOCC2)C1
1

###

measurement target: C-C chemokine receptor type 2 (Homo sapiens, UniProt P41597)
run description: Displacement of [125I]MCP1 from human CCR2 preincubated 1 hrs by human whole cell binding assay
Sequence (P41597 whole entry): as the sequence (P41597 whole entry, looked up) above
pIC50: −log10 of the molar value.
readout kind: pIC50

CC(C)[C@]1(C(=O)N2C[C@@H]3C[C@H]2CN3C(=O)C2CCC2)CC[C@@H](NC2CCOCC2)C1
7.49
CC(C)[C@]1(C(=O)N2C[C@@H]3C[C@H]2CN3C(=O)OC(C)(C)C)CC[C@@H](NC2CCOCC2)C1
8.30
CC(C)[C@]1(C(=O)N2C[C@@H]3C[C@H]2CN3C(=O)CC(C)(C)C)CC[C@@H](NC2CCOCC2)C1
7.43
CO[C@@H]1COCC[C@@H]1N[C@@H]1CC[C@@](C(=O)N2C[C@@H]3C[C@H]2CN3C(=O)OC(C)(C)C)(C(C)C)C1
8.54
CO[C@@H]1COCC[C@@H]1N[C@@H]1CC[C@@](C(=O)N2C[C@@H]3C[C@H]2CN3C(=O)C2CCCC2)(C(C)C)C1
8.07
CC(C)[C@]1(C(=O)N2C[C@@H]3C[C@H]2CN3C(=O)C2CCCC2)CC[C@@H](NC2CCOCC2)C1
7.91
CO[C@@H]1COCC[C@@H]1N[C@@H]1CC[C@@](C(=O)N2C[C@@H]3C[C@H]2CN3C(=O)c2ccccc2)(C(C)C)C1
8.19
CO[C@@H]1COCC[C@@H]1N[C@@H]1CC[C@@](C(=O)N2C[C@@H]3C[C@H]2CN3C(=O)C2CCC2)(C(C)C)C1
7.93
CO[C@@H]1COCC[C@@H]1N[C@@H]1CC[C@@](C(=O)N2CCN(C(=O)OC(C)(C)C)CC2)(C(C)C)C1
6.60
CO[C@@H]1COCC[C@@H]1N[C@@H]1CC[C@@](C(=O)N2C[C@@H]3C[C@H]2CN3C(=O)CC(C)(C)C)(C(C)C)C1
7.77
CC(C)[C@]1(C(=O)N2C[C@@H]3C[C@H]2CN3C(=O)OC(C)(C)C)CC[C@@H](NC2CCOCC2F)C1 (stereo partly specified)
8.38
